biological target: pCDR2 (ABC) efflux pump in S. cerevisiae YEM-37 (Candida albicans); assay: cell-based; assay type: cell-based, C. albicans
Sequence (P78595 whole entry): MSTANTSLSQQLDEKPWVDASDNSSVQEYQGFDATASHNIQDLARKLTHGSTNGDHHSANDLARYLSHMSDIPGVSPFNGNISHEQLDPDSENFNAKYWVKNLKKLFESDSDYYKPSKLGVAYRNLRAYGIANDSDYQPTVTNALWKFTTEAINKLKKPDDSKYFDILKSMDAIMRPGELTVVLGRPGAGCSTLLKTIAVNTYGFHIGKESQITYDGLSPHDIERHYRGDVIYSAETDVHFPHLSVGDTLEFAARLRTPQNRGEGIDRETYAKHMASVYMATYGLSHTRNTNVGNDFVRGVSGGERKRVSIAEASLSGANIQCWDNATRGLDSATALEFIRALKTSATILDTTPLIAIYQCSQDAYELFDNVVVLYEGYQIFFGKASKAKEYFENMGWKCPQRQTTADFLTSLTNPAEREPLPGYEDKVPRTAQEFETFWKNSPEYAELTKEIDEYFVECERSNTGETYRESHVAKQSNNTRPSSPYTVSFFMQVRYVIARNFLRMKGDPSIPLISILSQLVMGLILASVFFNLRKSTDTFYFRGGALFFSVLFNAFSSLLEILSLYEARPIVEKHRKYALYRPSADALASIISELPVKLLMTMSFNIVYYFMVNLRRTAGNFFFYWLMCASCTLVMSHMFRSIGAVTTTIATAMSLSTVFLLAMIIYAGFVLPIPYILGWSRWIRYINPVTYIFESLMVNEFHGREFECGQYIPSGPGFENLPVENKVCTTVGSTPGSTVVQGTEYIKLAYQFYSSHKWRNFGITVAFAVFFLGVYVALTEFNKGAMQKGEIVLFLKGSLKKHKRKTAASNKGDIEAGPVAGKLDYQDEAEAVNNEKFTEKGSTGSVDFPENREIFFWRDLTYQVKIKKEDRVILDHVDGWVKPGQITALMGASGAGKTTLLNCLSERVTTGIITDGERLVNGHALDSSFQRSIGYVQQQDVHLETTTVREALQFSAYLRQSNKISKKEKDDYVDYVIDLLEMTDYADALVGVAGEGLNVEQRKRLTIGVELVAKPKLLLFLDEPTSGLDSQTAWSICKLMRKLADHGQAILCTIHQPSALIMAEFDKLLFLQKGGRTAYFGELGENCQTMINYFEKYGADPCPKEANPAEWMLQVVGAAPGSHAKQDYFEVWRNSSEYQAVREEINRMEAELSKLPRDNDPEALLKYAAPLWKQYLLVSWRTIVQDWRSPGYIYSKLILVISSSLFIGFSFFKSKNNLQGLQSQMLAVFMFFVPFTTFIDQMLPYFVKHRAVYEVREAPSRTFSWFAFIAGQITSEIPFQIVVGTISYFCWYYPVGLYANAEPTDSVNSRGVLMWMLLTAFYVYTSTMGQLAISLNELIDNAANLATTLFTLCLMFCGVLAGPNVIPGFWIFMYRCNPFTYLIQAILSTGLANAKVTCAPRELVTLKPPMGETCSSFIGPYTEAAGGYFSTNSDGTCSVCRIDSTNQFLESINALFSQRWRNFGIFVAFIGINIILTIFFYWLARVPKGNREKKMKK
PROPERTY_NAME: IC50 (nM)
Numeric only. Scale: nM

Some solved entries appear below for comparison.
CCC(CC)C(=O)OCC1=C[C@H]2C(=O)O[C@H]3C[C@@H](C/C=C(\C)C[C@@H](C)/C=C/C=C4\CO[C@H]([C@@H]1O)[C@@]42O)O[C@@]1(CC[C@H](C)[C@@H](C)O1)C3 [Compound 21, 4a-O-(2-ethyl)butyryl milbemycin α1]
6220
CC1=C[C@H]2C(=O)O[C@H]3C[C@@H](C/C=C(\C)C[C@@H](C)/C=C/C=C4\CO[C@H]([C@@H]1O)[C@@]42O)O[C@]1(C3)C[C@H](O)[C@H](C)[C@@H](/C(C)=C/C(C)C)O1 [Compound 15, LL-F2849α (nemedectinα)]
1630
CO[C@@H]1C(C)=C[C@H]2C(=O)O[C@H]3C[C@@H](C/C=C(\C)C[C@@H](C)/C=C/C=C4\CO[C@H]1[C@@]42O)O[C@@]1(CC[C@H](C)[C@@H](C)O1)C3 [Compound 4, Milbemycin α2]
461
C/C1=C\C[C@@H]2C[C@@H](C[C@]3(CC[C@H](C)[C@@H](C)O3)O2)OC(=O)[C@@H]2C=C(COC(=O)c3ccc[nH]3)[C@@H](O)[C@H]3OC/C(=C\C=C\[C@H](C)C1)[C@]32O [Compound 11, Milbemycin α9]
3140
CC1=C[C@H]2C(=O)O[C@H]3C[C@@H](C/C=C(\C)C[C@@H](C)/C=C/C=C4\CO[C@H]([C@@H]1O)[C@@]42O)O[C@@]1(CC[C@H](C)[C@@H](C)O1)C3 [Compound 3, Milbemycin α1]
473

# ---- query molecule ----
Note down IC50 recorded for CC[C@H]1O[C@]2(CC[C@@H]1C)C[C@@H]1C[C@@H](C/C=C(\C)C[C@@H](C)/C=C/C=C3\CO[C@@H]4[C@H](O)C(C)=C[C@@H](C(=O)O1)[C@]34O)O2 [Compound 7, Milbemycin α3]
14700

* * *

tested on: Aspergillus fumigatus; test: FEPI MICs in combination with 1/4 the azole's MIC (Table 12); type: cell-based; conditions: itraconazole 0.063 μg/ml (1/4 MIC); 60% inhibition
Everything with FEPI MIC with itraconazole, 60% Inh lower than 1 is f; everything else, including exactly 1, is t.

Take a look at these entries with their results.
CO[C@H]1C[C@@]2(O)/C(CO)=C/C=C/[C@H](C)C/C(C)=C/C[C@@H]3C[C@@H](C[C@]4(CC[C@H](C)[C@@H](C)O4)O3)OC(=O)[C@@H]2C=C1C
t
C/C1=C\C[C@@H]2CC(C[C@]3(CC[C@H](C)[C@@H](C)O3)O2)OC(=O)c2cc(C)c(O)cc2/C(C)=C/C=C/[C@H](C)C1
t
CC[C@H]1O[C@]2(CC[C@@H]1C)C[C@@H]1C[C@@H](C/C=C(\C)C[C@@H](C)/C=C/C=C3\CO[C@@H]4[C@H](O)C(C)=C[C@@H](C(=O)O1)[C@]34O)O2
t

Determine whether measured FEPI MIC with itraconazole, 60% Inh meets or exceeds 1 for CCC(C)C1OC2(CC3CC(CC=C(C)C(OC4CC(OC)C(O)C(C)O4)C(C)C=CC=C4COC5C(O)C(C)=CC(C(=O)O3)C45O)O2)CC(O)C1C (stereo not drawn) [Compound 23, Avermectin B2a monoglycoside]
t

Determine whether measured FEPI MIC with itraconazole, 60% Inh meets or exceeds 1 for "CC1=C[C@H]2C(=O)O[C@H]3C[C@@H](C/C=C(\C)C[C@@H](C)/C=C/C=C4\CO[C@H]([C@@H]1O)[C@@]42O)O[C@@]1(CC[C@H](C)[C@@H](C(C)C)O1)C3"
t

Determine whether measured FEPI MIC with itraconazole, 60% Inh meets or exceeds 1 for CCC(C)C1OC2(CC3CC(CC=C(C)C(O)C(C)C=CC=C4COC5C(O)C(C)=CC(C(=O)O3)C45O)O2)CC(O)C1C (stereo not drawn)
t

Determine whether measured FEPI MIC with itraconazole, 60% Inh meets or exceeds 1 for "C/C1=C\C[C@@H]2C[C@@H](C[C@]3(CC[C@H](C)[C@@H](C)O3)O2)OC(=O)[C@@H]2C=C(COC(=O)C(C)C)[C@@H](O)[C@H]3OC/C(=C\C=C\[C@H](C)C1)[C@]32O"
f

Determine whether measured FEPI MIC with itraconazole, 60% Inh meets or exceeds 1 for "C/C1=C\C[C@@H]2C[C@@H](C[C@]3(CC[C@H](C)[C@@H](C)O3)O2)OC(=O)[C@@H]2C=C(COC(=O)Cc3ccccc3)[C@@H](O)[C@H]3OC/C(=C\C=C\[C@H](C)C1)[C@]32O"
f

Determine whether measured FEPI MIC with itraconazole, 60% Inh meets or exceeds 1 for "CC[C@H](C)[C@H]1O[C@]2(CC[C@@H]1C)C[C@@H]1C[C@@H](C/C=C(\C)[C@@H](O[C@H]3C[C@H](OC)[C@@H](O[C@H]4C[C@H](OC)[C@@H](O)[C@H](C)O4)[C@H](C)O3)[C@@H](C)/C=C/C=C3\CO[C@@H]4[C@H](O)C(C)=C[C@@H](C(=O)O1)[C@]34O)O2"
t
